Parameter: NanoBRET Abs IC50. Scope: all listed entries.
- assay_system: T1, B-cat-Halo (beta-catenin HaloTag construct expressed in HEK293 cells) (UniProt P35222 1-781)
- T1 sequence (looked up): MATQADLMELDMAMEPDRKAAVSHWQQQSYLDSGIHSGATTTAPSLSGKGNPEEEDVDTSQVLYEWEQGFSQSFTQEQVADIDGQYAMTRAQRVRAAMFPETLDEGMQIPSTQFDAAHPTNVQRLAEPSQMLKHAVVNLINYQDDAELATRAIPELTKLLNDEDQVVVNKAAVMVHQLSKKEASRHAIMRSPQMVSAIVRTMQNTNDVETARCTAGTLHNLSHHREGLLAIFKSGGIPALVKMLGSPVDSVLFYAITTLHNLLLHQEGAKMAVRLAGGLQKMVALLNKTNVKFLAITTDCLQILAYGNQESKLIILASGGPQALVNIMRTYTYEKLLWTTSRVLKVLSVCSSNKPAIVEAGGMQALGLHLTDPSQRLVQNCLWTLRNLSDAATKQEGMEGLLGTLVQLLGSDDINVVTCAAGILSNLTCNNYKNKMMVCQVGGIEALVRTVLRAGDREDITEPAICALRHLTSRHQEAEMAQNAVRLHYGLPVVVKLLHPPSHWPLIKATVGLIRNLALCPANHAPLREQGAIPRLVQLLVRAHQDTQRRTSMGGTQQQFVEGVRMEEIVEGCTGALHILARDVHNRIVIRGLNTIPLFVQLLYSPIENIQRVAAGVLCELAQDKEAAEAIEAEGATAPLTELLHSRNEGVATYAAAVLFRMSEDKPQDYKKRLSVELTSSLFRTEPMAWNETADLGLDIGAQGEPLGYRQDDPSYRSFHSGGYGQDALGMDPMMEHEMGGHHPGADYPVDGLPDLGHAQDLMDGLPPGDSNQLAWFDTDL
- procedure_summary: cell-based or functional assay
Starred links: 1 amine or outer side, 2 acyl side, 3 side chain; linkers in the order of their positions; H or OH if unused. Positions of bridges follow the written chain, without caps; N, C: chain ends. Non-standard residues stand in square brackets, D forms with d. Primed or numbered codes have the meaning given here. PyrS2(3) = (S)-3-amino-1-((pent-4-en-1-yloxy)carbonyl)pyrrolidine-3-carboxylic acid, stapling residue, C=CCCCOC(=O)N1CC[C@@](N[*:1])(C(=O)[*:2])C1; B5″ = 2,2-bis(4-pentenyl)glycine, stitching residue, C=CCCCC(CCCC=C)(N[*:1])C(=O)[*:2]; Phe(3-CN) = N#Cc1cccc(C[C@H](N)C(=O)O)c1; Phe(4-CN) = N#Cc1ccc(C[C@H](N)C(=O)O)cc1; Phe(2-CN) = N#Cc1ccccc1C[C@H](N)C(=O)O; Bta = N[C@@H](Cc1csc2ccccc12)C(=O)O; αAllylPro = C=CC[C@@]1(C(=O)O)CCCN1; tBuAla = CC(C)(C)C[C@H](N)C(=O)O; 3Thi = N[C@@H](Cc1ccsc1)C(=O)O; S8 = C=CCCCCCC[C@](C)(N)C(=O)O; R5 = C=CCCC[C@@](C)(N)C(=O)O

binder	value_comparator	NanoBRET Abs IC50, µM
Ac-[αAllylPro]D[tBuAla][B5″]DDAA[Phe(2-CN)]L[PyrS2(3)][3Thi][Bta]Q-NH2 (staple 1-4, 4-11) [I-1200]	>	20
Ac-[αAllylPro]D[tBuAla][B5″]DDAA[Phe(4-CN)]L[PyrS2(3)][3Thi][Bta]Q-NH2 (staple 1-4, 4-11) [I-1202]	=	16.3
Ac-[αAllylPro]D[tBuAla][B5″]DDAA[Phe(3-CN)]L[PyrS2(3)][3Thi][Bta]Q-NH2 (staple 1-4, 4-11) [I-1201]	=	19.6
Ac-[αAllylPro]D[tBuAla][B5″]DDAAFL[S8][3Thi][Bta]Q-NH2 (staple 1-4, 4-11) [I-1188]	=	7.2
Ac-PD[tBuAla][R5]DDAAFL[PyrS2(3)][3Thi][Bta]Q-NH2 (staple 4-11) [I-1181]	>	20
